Target: human α-Synuclein pre-formed fibrils (human, UniProt P37840 1-140)
Experiment: cell-based or functional assay
REPORTED ENDPOINT: % Inhibition (primary neuron assay) (%)
Entry rule: numbers only, all in %.

Reported % Inhibition (primary neuron assay) for 9060 (antibody, IgG1, V domains shown) VH: EVHLVESGGGLVQPKGSLKLSCAASGFTFNTYAMHWVRQAPGKGLEWVARIRNKSNNYATYYADSVKDRFTISRDDSQSMLFLQMDNLKTEDTAIYYCVRGGLSPFDYWGQGTTLTVSS VL: QIVLTQSPAIMSASPGEKVTMTCSASSSVTYMHWYQQKSGTSPKRWIYDTSKLASGVPARFSGSGSGTSYSLTISSMEAEDAATYYCQQWSSNPPTFGGGTKLEIR was 83.8

Data origin, for the record: patent US20230025707A1
